Listed here: items and their measured TGI.
- Test system: NCI-H522 lung
- experiment: NCI tumour cell line growth inhibition, 48 h
value kind: TGI

[
  {
    "chem smiles": "O=S(=O)(NCCCNc1cc(-c2cn(-c3ccccc3)nc2-c2cccc(O)c2)ccn1)c1ccc(Br)cc1",
    "result": "4.85 µM"
  },
  {
    "chem smiles": "COc1ccc(-c2cn(-c3cc(OC)c(OC)c(OC)c3)c(=O)[nH]2)cc1OC",
    "result": "> 100 µM"
  },
  {
    "chem smiles": "Cc1ccsc1C(=S)Nc1ccc(Cl)c(/C=N/OC(C)C)c1",
    "result": "> 100 µM"
  },
  {
    "chem smiles": "O=c1[nH]nc(Cc2ccccc2)n1/N=C/c1ccc([N+](=O)[O-])cc1",
    "result": "> 100 µM"
  },
  {
    "chem smiles": "CCCCCCCCCCCCSC(=S)c1c(C)[nH]n(CCCCCCCCCCCC)c1=O",
    "result": "> 100 µM"
  }
]

----------
- System: BT-549 breast
- experiment: NCI tumour cell line growth inhibition, 48 h
// reported TGI for each item listed
value kind: TGI

[
  {
    "compound": "O=C(Nc1cccc(C(=O)NCCCO)c1)/C(=C/c1ccccc1)NC(=O)c1ccccc1",
    "value kind": "TGI",
    "result": "> 100 µM"
  },
  {
    "compound": "NC(N)=Nc1ccc(/C=C2\\C=Cc3ccccc32)cc1",
    "value kind": "TGI",
    "result": "26.5 µM"
  },
  {
    "compound": "Cc1cc(=O)n2c3c(c4c(cc13)c(CN(C)C)cc(=O)n4C)OC2",
    "value kind": "TGI",
    "result": "83.8 µM"
  },
  {
    "compound": "Cc1ccccc1Nc1nc(NNC(=O)Cc2ccccc2)nc(NNC(=O)c2ccncc2)n1",
    "value kind": "TGI",
    "result": "> 10 µM"
  },
  {
    "compound": "O=c1c(-c2ccccc2)c(SCCN2CCOCC2)n(-c2ccccc2)c(=S)n1-c1ccccc1",
    "value kind": "TGI",
    "result": "> 100 µM"
  },
  {
    "compound": "CC(=O)Nc1cc2nc3n(c2cc1C)CCC3OC(C)=O (configuration not stated)",
    "value kind": "TGI",
    "result": "> 100 µM"
  },
  {
    "compound": "O=c1cccc2n1CC1CNC[C@H]2C1",
    "value kind": "TGI",
    "result": "> 100 µM"
  },
  {
    "compound": "O=C(c1ccccc1)c1nc2ccc(C(F)(F)F)cc2nc1N1CCN(c2ccccc2)CC1",
    "value kind": "TGI",
    "result": "84.5 µM"
  },
  {
    "compound": "COc1cc(CNc2c3ccccc3nc3ccccc23)cc(OC)c1OC",
    "value kind": "TGI",
    "result": "16.2 µM"
  },
  {
    "compound": "CC1(C)CCC(C)(C)c2cc(NC(=O)c3ccc(C(=O)O)cc3)ccc21",
    "value kind": "TGI",
    "result": "68.1 µM"
  },
  {
    "compound": "Cc1cc(C)nc(NS(=O)(=O)c2ccc(NC(=O)NC(F)(F)F)cc2)n1",
    "value kind": "TGI",
    "result": "> 100 µM"
  },
  {
    "compound": "CN(C)CCOc1ccccc1NC1=C(Cl)C(=O)C(Nc2ccccc2OCCN(C)C)=C(Cl)C1=O",
    "value kind": "TGI",
    "result": "> 49.7 µM"
  },
  {
    "compound": "C(#CC1(Nc2ccccc2)CCN(Cc2ccccc2)CC1)C1(Nc2ccccc2)CCN(Cc2ccccc2)CC1",
    "value kind": "TGI",
    "result": "> 100 µM"
  },
  {
    "compound": "CCCCCCCCCCOCCOCCOCCOCCCCC(O)CCCCCCCC1=C[C@H](C)OC1=O (some centres not stated)",
    "value kind": "TGI",
    "result": "16.1 µM"
  },
  {
    "compound": "CC1=N[C@@](C)(C2CC3C=CC2C3=O)COC1=O (some centres not stated)",
    "value kind": "TGI",
    "result": "> 100 µM"
  },
  {
    "compound": "CCOC(=O)N/N=C(\\CC)OCC",
    "value kind": "TGI",
    "result": "> 100 µM"
  },
  {
    "compound": "O=[N+]([O-])c1oc2ccc3ccccc3c2c1CCO",
    "value kind": "TGI",
    "result": "8.71 µM"
  },
  {
    "compound": "NC(=O)CCC(NC(=O)c1c2ccccc2nc2ccccc12)C(=O)O (configuration not stated)",
    "value kind": "TGI",
    "result": "> 100 µM"
  },
  {
    "compound": "Cc1ccsc1C(=S)Nc1ccc(Cl)c(/C=N/OC(C)C)c1",
    "value kind": "TGI",
    "result": "> 100 µM"
  },
  {
    "compound": "CCCCCCCCCCCCCCCCN(CC)CC",
    "value kind": "TGI",
    "result": "3.89 µM"
  },
  {
    "compound": "Cn1c(=O)c(Oc2ccc(F)cc2F)cc2cnc(NC3CCOCC3)nc21",
    "value kind": "TGI",
    "result": "> 25 µM"
  },
  {
    "compound": "O=S(=O)(CCC[C@H]1[C@@H](CCOCc2ccccc2)C2CCCN1O2)c1ccccc1 (some centres not stated)",
    "value kind": "TGI",
    "result": "> 100 µM"
  }
]
